- System: NCI-H522 lung
- test.name: NCI tumour cell line growth inhibition, 48 h
Assign classes using reported TGI values and the ranges bottom range: < 6 µM; center range: ≥ 6 µM and < 30 µM; top range: ≥ 30 µM, please.

Task item: // bin(item) where item = N#CNC1=NC(N)C(c2nc3ccccc3[nH]2)=C(CCCC(=O)Nc2cccc([N+](=O)[O-])c2)N1 (stereo unspecified)
Reply: top range

Task item: // bin(item) where item = `O=S(=O)(NCCCNc1cc(-c2cn(-c3ccccc3)nc2-c2cccc(O)c2)ccn1)c1ccc(F)cc1`
Reply: center range

Task item: // bin(item) where item = `O=C1c2ccccc2C(=O)c2c1cc1c(c2[N+](=O)[O-])OCO1`
Reply: bottom range

Task item: // bin(item) where item = CCC(C)N1CN(c2ccccc2)C2(CCN(CCCSc3ccc(F)cc3)CC2)C1=O (stereo unspecified)
Reply: center range

Task item: // bin(item) where item = `O=S(=O)(NCCCNc1nccc(-c2c(-c3ccc(F)cc3)nc3sccn23)n1)c1ccc(F)cc1`
Reply: top range

Task item: // bin(item) where item = `FC(F)(F)c1cccnc1Sc1nc2ccccc2s1`
Reply: top range

Task item: // bin(item) where item = COC1=C2CC(C)CC(OC)C(OC(=O)CCCN)C(C)/C=C(\C)C(OC(N)=O)C(OC)/C=C\C=C(/C)C(=O)NC(=CC1=O)C2=O (stereo unspecified)
Reply: bottom range

Task item: // bin(item) where item = `COc1ccc(/C=C/c2cc(OC)c(OCc3ccccc3)c(OC)c2)cc1`
Reply: top range

Task item: // bin(item) where item = `CN(CCNC(=S)c1cn(C)c2c1ccc1ccccc12)CCNC(=S)c1cn(C)c2c1ccc1ccccc12`
Reply: top range

Task item: // bin(item) where item = `COc1cc(C(=O)/C=C/c2c(C(F)(F)F)nc3ccccn23)cc(OC)c1OC`
Reply: bottom range

Task item: // bin(item) where item = `CCCC(=O)OCOC(=O)N(C)N=Nc1ccc(C(=O)OCC)cc1`
Reply: top range

Task item: // bin(item) where item = `Cc1nc(N(C(C)C)C(C)C)c(C(C)C)o1`
Reply: top range

Task item: // bin(item) where item = CCc1ccccc1NC(=O)CC1NC(=O)CS1 (stereo unspecified)
Reply: top range

Task item: // bin(item) where item = c1ccc(COC2C3COC(O3)C(OCc3ccccc3)C2OCc2ccccc2)cc1 (stereo unspecified)
Reply: top range

Task item: // bin(item) where item = CCC(=O)C(CCN1CCC(N2C(=O)C(CCC#N)c3ccccc32)CC1)(c1ccccc1)c1ccccc1 (stereo unspecified)
Reply: center range

Task item: // bin(item) where item = `CNC(=O)CCCNC(=O)CCCC(=O)OC`
Reply: top range

Task item: // bin(item) where item = Cc1nnc(N/N=C(/C(=O)C(C#N)c2ccc(Cl)cc2)C(C#N)c2ccc(Cl)cc2)n1N (stereo unspecified)
Reply: top range

Task item: // bin(item) where item = `Cn1c(C(=O)c2cccc3ccccc23)nc2ccccc21`
Reply: top range

Task item: // bin(item) where item = O=C(O)C12CC3CC(C1)C2C=C3P(=O)(O)O (stereo unspecified)
Reply: top range

Task item: // bin(item) where item = c1n[nH]cc1C12C3C4C5C3C1C5C42 (stereo unspecified)
Reply: top range
